Molecular target: T1, Anti-CD28 Fab (SEQ ID NOs: 696, 697)
T1 construct: In the phage ELISA the Fab was biotinylated and captured on neutravidin coated plates
T1 sequence (VH, as listed by the source, chain 1 of 2): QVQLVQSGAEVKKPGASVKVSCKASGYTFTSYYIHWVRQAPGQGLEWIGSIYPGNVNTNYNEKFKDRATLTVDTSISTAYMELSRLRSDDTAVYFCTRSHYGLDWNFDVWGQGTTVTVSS
T1 sequence (VL, as listed by the source, chain 2 of 2): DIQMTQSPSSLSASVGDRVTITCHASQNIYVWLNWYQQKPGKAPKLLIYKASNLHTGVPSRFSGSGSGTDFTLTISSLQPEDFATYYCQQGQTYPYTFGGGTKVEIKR
Experiment: phage ELISA; Fab-coated wells pre-incubated with CD28 antigen as competitor, clonal phage supernatant, anti-M13 HRP detection
For each record, write down the corresponding Phage binding ELISA, Anti-CD28 Fab signal in the presence of CD28.

LCAAGANYPWPACL (Tested as clonal phage supernatant; not shown: fused to pIII of the bacteriophage) [Phage-1500 (Peptide-92 library clone, SEQ ID NO: 1796)]; 0.07
TCSAGASYPWPVCL (Tested as clonal phage supernatant; not shown: fused to pIII of the bacteriophage) [Phage-1495 (Peptide-92 library clone, SEQ ID NO: 1791)]; 0.07

Would you mind listing Phage binding ELISA, Anti-CD28 Fab signal in the presence of CD28 for each of the following binders?
1. LCNAGAPYKWPTCL (Tested as clonal phage supernatant; not shown: fused to pIII of the bacteriophage) [Phage-1497 (Peptide-92 library clone, SEQ ID NO: 1793)]
2. RCAAGVMYDWPVCL (Tested as clonal phage supernatant; not shown: fused to pIII of the bacteriophage) [Phage-1490 (Peptide-92 library clone, SEQ ID NO: 1786)]
3. TCSAGAHWTWPLCF (Tested as clonal phage supernatant; not shown: fused to pIII of the bacteriophage) [Phage-1491 (Peptide-92 library clone, SEQ ID NO: 1787)]
4. WCAAGAMYPWPLCL (Tested as clonal phage supernatant; not shown: fused to pIII of the bacteriophage) [Phage-1496 (Peptide-92 library clone, SEQ ID NO: 1792)]

0.07
0.07
0.06
0.06

For every listed record, write down its Phage binding ELISA, Anti-CD28 Fab signal in the presence of CD28.
1. LCSAGAMYPWPLCY (Tested as clonal phage supernatant; not shown: fused to pIII of the bacteriophage) [Phage-1498 (Peptide-92 library clone, SEQ ID NO: 1794)]
2. TCAAGAMWVWPTCL (Tested as clonal phage supernatant; not shown: fused to pIII of the bacteriophage) [Phage-1499 (Peptide-92 library clone, SEQ ID NO: 1795)]
3. TCSAGAHFAWPMCF (Tested as clonal phage supernatant; not shown: fused to pIII of the bacteriophage) [Phage-1492 (Peptide-92 library clone, SEQ ID NO: 1788)]
4. SCAAGATYTWPMCI (Tested as clonal phage supernatant; not shown: fused to pIII of the bacteriophage) [Phage-1501 (Peptide-92 library clone, SEQ ID NO: 1797)]
5. TCSAGATYNWPWCF (Tested as clonal phage supernatant; not shown: fused to pIII of the bacteriophage) [Phage-1494 (Peptide-92 library clone, SEQ ID NO: 1790)]
6. SCAAGAHYVWPFCF (Tested as clonal phage supernatant; not shown: fused to pIII of the bacteriophage) [Phage-1493 (Peptide-92 library clone, SEQ ID NO: 1789)]

0.08
0.07
0.07
0.07
0.05
0.08

Count: 2. Required value per item: Phage binding ELISA, Anti-CD28 Fab signal in the presence of CD28.
1. TCAAGAGWAWPFCF (Tested as clonal phage supernatant; not shown: fused to pIII of the bacteriophage) [Phage-1503 (Peptide-92 library clone, SEQ ID NO: 1799)]
2. SCAAGLSYPWPDCL (Tested as clonal phage supernatant; not shown: fused to pIII of the bacteriophage) [Phage-1502 (Peptide-92 library clone, SEQ ID NO: 1798)]

[0.09, 0.07]

Measured values drawn from patent US20260242478A1 for this set.
